Molecular target: 2G12 antibody
Test: Carbohydrate microarray analysis, microtiter-based, Scatchard plot (Kd)
Format: binding, human
Details: oligomannose immobilized as azide derivative on cleavable linker in microtiter plate; fluorescent secondary antibody
List of pKd values.
Please keep in mind that pKd is minus log10 of the molar concentration; only the number is needed.

Problem: Please state recorded pKd (tested on 2G12 antibody) of O=[N+]([O-])c1ccc(O[C@@H]2OC(CO)[C@@H](O[C@@H]3OC(CO)[C@H](O)[C@H](O)C3O)[C@H](O)C2O)cc1 (some centres unmarked) [Compound 5]
Solution: 7.00

Problem: Please state recorded pKd (tested on 2G12 antibody) of OCC1O[C@@H](O)C(O)[C@@H](O)[C@@H]1O[C@@H]1OC(CO)[C@H](O)[C@H](O)C1O (some centres unmarked) [Compound 4]
Solution: 7.00
